Data provenance: the RNAGym collection of RNA variant scans (doi:10.7554/elife.80360)

B1: HDV Ribozyme (parent)
chain: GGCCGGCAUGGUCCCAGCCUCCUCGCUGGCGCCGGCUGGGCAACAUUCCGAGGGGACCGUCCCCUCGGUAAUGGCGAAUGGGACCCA

Variants of: B1
Experiment: self-cleavage, relative activity (ratio to wild type); higher = more cleavage; co-transcriptional
Classify as follows. Reported self-cleavage greater than or equal to 0.3: Criterion met. Reported self-cleavage below: Criterion not met.

Use these answered entries as a reference point.
seq	group
GGCCGGCAUGGUCCCAGCCUCCUCGCUGGCGCCGGCUGGGCAACAUUCCGAGGGGACCGUCCCCACAGUAAUGGCGAAUGGGACCCA [U65A G67A]	Criterion met
GGCCGGCAUGGUCCCAGCCUCCUCGCUGGCGCCGGCUGGGCAACAUUCUGAGGGGACCGUCCCCUCGGUAAUGGCGAAUGGGAGCCA [C49U C84G]	Criterion met
GGCCGGCAUGGUCCCAGCCUCCUCGCUGGCGCCGGCUGGGCAACAUUCCGAGGGGACCGUCCCCUCGGUAAUUGUGAAUGGGACCCA [G73U C75U]	Criterion not met
GGCCGCCAUGGUCCCAGCCUCCUCGCUGGCGCCGGCCGGGCAACAUUCCGAGGGGACCGUCCCCUCGGUAAUGGCGAAUGGGACCCA [G6C U37C]	Criterion met
GGCCGGCAUGGUCCCAGCCUCCUCGCUGGCGCCGUCUGGGCAACAUUCCGAGGGGACCGUCCCCUCGGUAAUGGCGAAUGAGACCCA [G35U G81A]	Criterion not met

Given the entry GGCUGCCAUGGUCCCAGCCUCCUCGCUGGCGCCGGCUGGGCAACAUUCCGAGGGGACCGUCCCCUCGGUAAUGGCGAAUGGGACCCA [C4U G6C] , answer whether its self-cleavage meets or surpasses 0.3.
Criterion not met

Given the entry GGCCGGCAUGGUCCCAGCCUCUUCGCUGGCGCCGGCUGGGCAACAUUCCGAGGGGACCGUCCCCUCGGUAAUGGCGAAUGGGACGCA [C22U C85G] , answer whether its self-cleavage meets or surpasses 0.3.
Criterion met

Given the entry GGCCGGCAUGGUCCCAGCCUUCUCGCUGUCGCCGGCUGGGCAACAUUCCGAGGGGACCGUCCCCUCGGUAAUGGCGAAUGGGACCCA [C21U G29U] , answer whether its self-cleavage meets or surpasses 0.3.
Criterion not met

Given the entry GGCCGGCAUGGUCCCAGCCUCCUCGCUGGCGCCGGCUGGGCAACAUUCCGUGGGGACCGUCCGCUCGGUAAUGGCGAAUGGGACCCA [A51U C63G] , answer whether its self-cleavage meets or surpasses 0.3.
Criterion not met

Given the entry GGCCGGCAUGGUCCCAGCCUCCUCGCUGGCGCCGGCUGGGCAACAUUCCGAGGGGACCGUGCCCUCGGUAAUGGCGAAUGGGACCGA [C61G C86G] , answer whether its self-cleavage meets or surpasses 0.3.
Criterion met

Given the entry AGCCGGCAUGGUCCCAGCCUCCUCGCUGGCGCCGGCUGGGCAACAUUCCGAGGGGACCGUCCCCUCGGUAAUGGCGAAUGGUACCCA [G1A G82U] , answer whether its self-cleavage meets or surpasses 0.3.
Criterion not met
